Tested on: Escherichia coli TOP10;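 note: peptides expressed intracellularly from a pBAD plasmid library in pooled LB shake-flask culture, induced with 0.3% L-arabinose, DNA abundance read by NGS, three biological replicates, DESeq2 with apeglm shrinkage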
MEASUREMENT_PROTOCOL: shrunken log2 fold change of peptide-encoding DNA abundance (4.5 h post-induction vs induction); higher = less antimicrobial activity (less host growth inhibition)
CONDITION_SUMMARY: time post-induction: 4.5 h; library: site-saturation at positions 5, 18, 19, 20
Returns 1 (yes) if the recorded shrunken log2 fold change is greater than or equal to -0.07, and 0 (no) otherwise.

RRIRGRPPRLPRPRPRPHPIPRP :: 0 (no)
RRIRKRPPRLPRPRPRPPSGPRP :: 1 (yes)
RRIRCRPPRLPRPRPRPIWNPRP :: 0 (no)
RRIRWRPPRLPRPRPRPFMLPRP :: 0 (no)
RRIRMRPPRLPRPRPRPTLNPRP :: 1 (yes)
RRIRSRPPRLPRPRPRPYKHPRP :: 0 (no)
RRIRLRPPRLPRPRPRPRLPPRP :: 1 (yes)
RRIRMRPPRLPRPRPRPFVWPRP :: 1 (yes)
RRIRIRPPRLPRPRPRPTSWPRP :: 1 (yes)
RRIRTRPPRLPRPRPRPFEWPRP :: 1 (yes)
RRIRYRPPRLPRPRPRPNIGPRP :: 0 (no)
RRIRIRPPRLPRPRPRPCIPPRP :: 0 (no)
RRIRVRPPRLPRPRPRPLMEPRP :: 0 (no)
RRIRKRPPRLPRPRPRPTKPPRP :: 1 (yes)
RRIRPRPPRLPRPRPRPTNCPRP :: 0 (no)
RRIRTRPPRLPRPRPRPINFPRP :: 0 (no)
RRIRQRPPRLPRPRPRPKSTPRP :: 0 (no)
RRIRYRPPRLPRPRPRPRQMPRP :: 0 (no)
RRIRRRPPRLPRPRPRPYCCPRP :: 0 (no)
RRIRTRPPRLPRPRPRPAFTPRP :: 1 (yes)
RRIRHRPPRLPRPRPRPGYLPRP :: 0 (no)
RRIRPRPPRLPRPRPRPRTTPRP :: 1 (yes)
RRIRSRPPRLPRPRPRPHHHPRP :: 0 (no)
RRIRMRPPRLPRPRPRPGEFPRP :: 1 (yes)
RRIRERPPRLPRPRPRPQNVPRP :: 1 (yes)
RRIRMRPPRLPRPRPRPFLEPRP :: 0 (no)
RRIRVRPPRLPRPRPRPINYPRP :: 0 (no)
RRIRMRPPRLPRPRPRPVLFPRP :: 1 (yes)
RRIRTRPPRLPRPRPRPCKQPRP :: 0 (no)
RRIRFRPPRLPRPRPRPDSQPRP :: 0 (no)
RRIRVRPPRLPRPRPRPMNLPRP :: 0 (no)
RRIRERPPRLPRPRPRPWLNPRP :: 1 (yes)
RRIRVRPPRLPRPRPRPNTQPRP :: 1 (yes)
RRIRFRPPRLPRPRPRPFRTPRP :: 0 (no)
RRIRTRPPRLPRPRPRPTATPRP :: 1 (yes)
RRIRERPPRLPRPRPRPAHNPRP :: 1 (yes)
RRIRCRPPRLPRPRPRPNDGPRP :: 1 (yes)
RRIRKRPPRLPRPRPRPVQDPRP :: 1 (yes)
RRIRSRPPRLPRPRPRPWCIPRP :: 1 (yes)
RRIRFRPPRLPRPRPRPLDCPRP :: 0 (no)
RRIRARPPRLPRPRPRPTQSPRP :: 1 (yes)
RRIRERPPRLPRPRPRPRSRPRP :: 0 (no)
RRIRIRPPRLPRPRPRPTEYPRP :: 0 (no)
RRIRVRPPRLPRPRPRPWGGPRP :: 1 (yes)
RRIRQRPPRLPRPRPRPETQPRP :: 1 (yes)
RRIRFRPPRLPRPRPRPTHIPRP :: 0 (no)
RRIRHRPPRLPRPRPRPFKIPRP :: 0 (no)
RRIRKRPPRLPRPRPRPYSPPRP :: 0 (no)
RRIRHRPPRLPRPRPRPAFHPRP :: 0 (no)
